The values you see were collected from ChEMBL document CHEMBL1127347.

What pIC50 was measured for each of the following?
Target: 3-hydroxy-3-methylglutaryl-coenzyme A reductase (Rattus norvegicus, UniProt P51639)
Sequence (P51639 whole entry): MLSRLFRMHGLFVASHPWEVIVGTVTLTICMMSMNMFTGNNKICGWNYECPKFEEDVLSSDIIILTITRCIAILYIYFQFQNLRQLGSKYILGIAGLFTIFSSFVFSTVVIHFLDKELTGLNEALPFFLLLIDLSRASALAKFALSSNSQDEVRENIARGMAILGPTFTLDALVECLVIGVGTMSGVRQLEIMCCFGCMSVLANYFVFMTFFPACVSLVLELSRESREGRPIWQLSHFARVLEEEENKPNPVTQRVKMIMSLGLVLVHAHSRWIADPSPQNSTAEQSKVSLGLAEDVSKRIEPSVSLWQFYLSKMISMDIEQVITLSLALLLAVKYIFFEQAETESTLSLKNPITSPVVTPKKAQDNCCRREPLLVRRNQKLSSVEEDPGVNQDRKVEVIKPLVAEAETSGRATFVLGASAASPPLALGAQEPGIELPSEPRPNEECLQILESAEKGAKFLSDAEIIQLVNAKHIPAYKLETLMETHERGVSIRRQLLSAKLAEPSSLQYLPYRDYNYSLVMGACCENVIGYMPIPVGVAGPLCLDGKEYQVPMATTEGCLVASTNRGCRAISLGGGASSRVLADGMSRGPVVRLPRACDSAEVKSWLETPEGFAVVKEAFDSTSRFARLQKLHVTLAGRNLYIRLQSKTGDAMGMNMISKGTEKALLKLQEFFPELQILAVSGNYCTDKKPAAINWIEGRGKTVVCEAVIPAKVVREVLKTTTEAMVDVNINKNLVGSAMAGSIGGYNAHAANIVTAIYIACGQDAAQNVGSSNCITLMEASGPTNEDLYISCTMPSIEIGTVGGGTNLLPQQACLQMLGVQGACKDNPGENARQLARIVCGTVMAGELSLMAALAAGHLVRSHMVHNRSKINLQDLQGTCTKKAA
Remember, pIC50 is on a log scale: it is -log10 of the molar concentration.

-- ask Reported pIC50 for CC[C@H](C)C(=O)O[C@H]1C[C@H]2[C@@H](CC[C@@H]3C[C@H](O)CC[C@@]32C)[C@@H]2CCC(CC[C@@H]3C[C@@H](O)CC(=O)O3)[C@@]12C (some centres undefined) : what is it?
-- reply 6.70

-- ask How about CC[C@H](C)C(=O)O[C@H]1C[C@H]2[C@@H](CC[C@@H]3C[C@H](O)CC[C@@]32C)[C@@H]2CCC([C@H](C)C[C@H]3C[C@@H](O)CC(=O)O3)[C@@]12C (some centres undefined) ?
-- reply 5.15

-- ask Also CC[C@H](C)C(=O)O[C@H]1C[C@H]2[C@@H](CC[C@@H]3C[C@H](O)CC[C@@]32C)[C@@H]2CCC([C@H](C)C[C@@H]3C[C@@H](O)CC(=O)O3)[C@@]12C (some centres undefined) , if possible.
-- reply 6.19

-- ask Same read-out for CC[C@H](C)C(=O)O[C@H]1C[C@H]2[C@@H](CC[C@@H]3C[C@H](O)CC[C@@]32C)[C@@H]2CCC(CC[C@H]3C[C@@H](O)CC(=O)O3)[C@@]12C (some centres undefined) ?
-- reply 6.00

----------
Species on record: Oryctolagus cuniculus
Assay: Tested for inhibition of Na+ -dependent [3H]taurocholate uptake into rabbit ileal brush border membrane vesicles
Type: functional
For each of the compounds below, state its IC75.
Return type: number; implicit unit µM.

-- ask Please report the recorded IC75 for C[C@H](CCC(=O)NCCS(=O)(=O)O)[C@H]1CC[C@H]2[C@@H]3[C@H](O)C[C@@H]4C[C@H](O)CC[C@]4(C)[C@H]3CC[C@]12C [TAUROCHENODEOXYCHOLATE] .
-- reply 61

-- ask Please answer likewise for CC[C@H](C)C(=O)O[C@H]1C[C@H]2[C@@H](CC[C@@H]3C[C@H](O)CC[C@@]32C)[C@@H]2CCC([C@H](C)C[C@H]3C[C@@H](O)CC(=O)O3)[C@@]12C (some centres not stated)
-- reply 166

-- ask Input CC[C@H](C)C(=O)O[C@H]1C[C@H]2[C@@H](CC[C@@H]3C[C@H](O)CC[C@@]32C)[C@@H]2CCC([C@H](C)C[C@@H]3C[C@@H](O)CC(=O)O3)[C@@]12C (some centres not stated)
-- reply 148

-- ask How about C[C@H](CCC(=O)O)[C@H]1CC[C@H]2[C@@H]3[C@H](O)C[C@@H]4C[C@H](O)CC[C@]4(C)[C@H]3C[C@H](O)[C@]12C ?
-- reply 152

----------
Test system: HepG2
Experiment: Tested for inhibition of cholesterol biosynthesis in HEP G2 cells
Assay type: functional, cell-based
Conditions: Homo sapiens
Sorting guide: entries reporting IC50 beneath 8 µM go in the T pile, the rest go in the F pile.

-- ask Strictly below 8 µM: is that where IC50 of CC[C@H](C)C(=O)O[C@H]1C[C@@H](C)C=C2C=C[C@H](C)[C@H](CC[C@@H]3C[C@@H](O)CC(=O)O3)[C@H]21 [LOVASTATIN] sits?
-- reply T

-- ask Now the compound CC[C@H](C)C(=O)O[C@H]1C[C@H]2[C@@H](CC[C@@H]3C[C@H](O)CC[C@@]32C)[C@@H]2CCC([C@H](C)C[C@@H]3C[C@@H](O)CC(=O)O3)[C@@]12C (stereo not given in full)
-- reply F

-- ask Would you mind doing CC[C@H](C)C(=O)O[C@H]1C[C@H]2[C@@H](CC[C@@H]3C[C@H](O)CC[C@@]32C)[C@@H]2CCC([C@H](C)C[C@H]3C[C@@H](O)CC(=O)O3)[C@@]12C (stereo not given in full) as well?
-- reply F

-- ask What do you get for CC[C@H](C)C(=O)O[C@H]1C[C@H]2[C@@H](CC[C@@H]3C[C@H](O)CC[C@@]32C)[C@@H]2CCC(CC[C@@H]3C[C@@H](O)CC(=O)O3)[C@@]12C (stereo not given in full) ?
-- reply T

----------
Kindly state IC75 for each of the entries shown.
Organism: Oryctolagus cuniculus
Experiment: Tested for inhibition of Na+ -dependent [3H]taurocholate uptake into rabbit ileal brush border membrane vesicles
Type: functional

-- ask Endpoint output: IC75 of CC[C@H](C)C(=O)O[C@H]1C[C@H]2[C@@H](CC[C@@H]3C[C@H](O)CC[C@@]32C)[C@@H]2CCC(CC[C@@H]3C[C@@H](O)CC(=O)O3)[C@@]12C (stereo partly drawn) . Value?
-- reply > 250 µM

-- ask Try CC[C@H](C)C(=O)O[C@H]1C[C@@H](C)C=C2C=C[C@H](C)[C@H](CC[C@@H]3C[C@@H](O)CC(=O)O3)[C@H]21 [LOVASTATIN] next.
-- reply > 250 µM

-- ask Can you handle CC[C@H](C)C(=O)O[C@H]1C[C@H]2[C@@H](CC[C@@H]3C[C@H](O)CC[C@@]32C)[C@@H]2CCC(CC[C@H]3C[C@@H](O)CC(=O)O3)[C@@]12C (stereo partly drawn) next?
-- reply > 250 µM
